assay_method_text: Hygroscopicity test (Chinese Pharmacopoeia General Chapter 9103)
Assay type: physicochemical
condition_description: 25° C.±1° C., relative humidity 80%±2%, 24 h
Classification field: enter label 1 for Hygroscopic weight gain values not below 0.2 wt %, label 0 for values below it.

Check out these entries, answers already filled in.
| molecule | group |
| --- | --- |
| CC1(C)CCC(CN2CCN(c3ccc(C(=O)NS(=O)(=O)c4ccc(NC[C@H]5COCCO5)c([N+](=O)[O-])c4)c(Oc4cnc5[nH]ccc5c4)c3)CC2)=C(c2ccc(C(F)(F)F)cc2Cl)C1 [Crystalline form C] | label 0 |
| CC1(C)CCC(CN2CCN(c3ccc(C(=O)NS(=O)(=O)c4ccc(NC[C@H]5COCCO5)c([N+](=O)[O-])c4)c(Oc4cnc5[nH]ccc5c4)c3)CC2)=C(c2ccc(C(F)(F)F)cc2Cl)C1 [Crystalline form A] | label 1 |

Does the molecule CC1(C)CCC(CN2CCN(c3ccc(C(=O)NS(=O)(=O)c4ccc(NC[C@H]5COCCO5)c([N+](=O)[O-])c4)c(Oc4cnc5[nH]ccc5c4)c3)CC2)=C(c2ccc(C(F)(F)F)cc2Cl)C1 [Crystalline form F] have recorded Hygroscopic weight gain that is 0.2 wt % or more?
label 1

Does the molecule CC1(C)CCC(CN2CCN(c3ccc(C(=O)NS(=O)(=O)c4ccc(NC[C@H]5COCCO5)c([N+](=O)[O-])c4)c(Oc4cnc5[nH]ccc5c4)c3)CC2)=C(c2ccc(C(F)(F)F)cc2Cl)C1 [Crystalline form H] have recorded Hygroscopic weight gain that is 0.2 wt % or more?
label 1

Does the molecule CC1(C)CCC(CN2CCN(c3ccc(C(=O)NS(=O)(=O)c4ccc(NC[C@H]5COCCO5)c([N+](=O)[O-])c4)c(Oc4cnc5[nH]ccc5c4)c3)CC2)=C(c2ccc(C(F)(F)F)cc2Cl)C1 [Crystalline form E] have recorded Hygroscopic weight gain that is 0.2 wt % or more?
label 0

Does the molecule CC1(C)CCC(CN2CCN(c3ccc(C(=O)NS(=O)(=O)c4ccc(NC[C@H]5COCCO5)c([N+](=O)[O-])c4)c(Oc4cnc5[nH]ccc5c4)c3)CC2)=C(c2ccc(C(F)(F)F)cc2Cl)C1 [Crystalline form D] have recorded Hygroscopic weight gain that is 0.2 wt % or more?
label 1

Does the molecule CC1(C)CCC(CN2CCN(c3ccc(C(=O)NS(=O)(=O)c4ccc(NC[C@H]5COCCO5)c([N+](=O)[O-])c4)c(Oc4cnc5[nH]ccc5c4)c3)CC2)=C(c2ccc(C(F)(F)F)cc2Cl)C1 [Crystalline form B] have recorded Hygroscopic weight gain that is 0.2 wt % or more?
label 1
